Assay Text: Pharmacokinetic study of 15 LJF components in plasma of RSV-infected mice after oral LJF extract (UHPLC-QQQ MS)
Type: in vivo
Measurement Conditions: mouse, in vivo, po, 12 g/kg, RSV mice plasma, oral LJF extract 12.0 g/kg, n = 6; read-out: MRT(0–t)

Compound | MRT last
C[C@@H]1O[C@@H](OC[C@H]2O[C@@H](Oc3c(-c4ccc(O)c(O)c4)oc4cc(O)cc(O)c4c3=O)[C@H](O)[C@@H](O)[C@@H]2O)[C@H](O)[C@H](O)[C@H]1O [Rutin] | 1.51 h

* * *

Assay Text: Pharmacokinetic study of 15 LJF components in plasma of RSV-infected mice after oral LJF extract (UHPLC-QQQ MS)
Type: in vivo
Measurement Conditions: mouse, in vivo; RSV mice plasma, oral LJF extract 12.0 g/kg, n = 6; read-out: Cmax
Attribute Measured: Cmax (ng/mL)

Compound | Result Number
O=c1cc(-c2ccc(O)c(O)c2)oc2cc(O[C@@H]3O[C@H](CO)[C@@H](O)[C@H](O)[C@H]3O)cc(O)c12 [Luteoloside] | 16.5
O=c1c(O[C@@H]2O[C@H](CO)[C@@H](O)[C@H](O)[C@H]2O)c(-c2ccc(O)c(O)c2)oc2cc(O)cc(O)c12 [Isoquercitrin] | 26.5
